Hello, the source for this data is paper PMC7221760, in case you need it.

Target Under Test: NadRLl (Lactococcus lactis, UniProt Q9CE60)
Construct: gene nadR; NMNAT domain residues 8-177, RNK domain residues 178-379
Sequence (Q9CE60 1-379): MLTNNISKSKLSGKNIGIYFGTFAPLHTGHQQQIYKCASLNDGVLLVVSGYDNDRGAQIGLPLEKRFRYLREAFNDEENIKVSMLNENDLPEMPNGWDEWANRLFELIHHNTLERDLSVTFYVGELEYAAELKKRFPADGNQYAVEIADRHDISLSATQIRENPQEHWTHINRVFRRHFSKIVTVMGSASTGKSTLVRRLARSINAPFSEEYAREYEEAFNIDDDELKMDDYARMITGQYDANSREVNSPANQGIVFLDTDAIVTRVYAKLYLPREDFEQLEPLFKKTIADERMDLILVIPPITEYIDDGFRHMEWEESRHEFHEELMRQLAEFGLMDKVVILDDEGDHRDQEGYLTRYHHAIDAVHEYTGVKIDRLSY
Assay Explanation: isothermal titration calorimetry
Type: binding
Stated Conditions: read-out: Dissociation Constant-KD
Assay Endpoint: pKd
Give only the number. pKd is defined as minus log10 of concentration in molar units.

[
  {
    "Test Smiles": "Nc1ncnc2c1ncn2[C@@H]1O[C@H](COP(=O)(O)OP(=O)(O)NP(=O)(O)O)[C@@H](O)[C@H]1O",
    "Assay Endpoint": "pKd",
    "Quantitative Result": 4.89
  }
]

Note: attention shifts to another entry.
Suppose we examine the molecule Nc1ncnc2c1ncn2[C@@H]1O[C@H](COP(=O)(O)OP(=O)(O)OP(=O)(O)O)[C@@H](O)[C@H]1O ; what pKd value has been reported? 4.20
